# procedure.text: protease stability score; higher = more stable; yeast display proteolysis, trypsin and chymotrypsin
assay.readout: protease stability score

Below, 2 sequences whose answers are already recorded.
* SEEEKTSHHLLKLIKHDRETGNEKRMEEYIDPHVKLLINGREFHGWEDALHWIREAGIKHFELKHIDIIGEKLRIDGVINYNGQTHRITFHAIKVDGVWLNKEINHG | 0.121
* DEDTKLVEEFLRDWLRALLTGDEEHLHKLLDPNTRVEINGQEFHGREMEVELMRHWRLDHIDIREIRITIIGNKVENHVRGRVDGEFDGRKINRETKLVNYVVKVNGRWLFHSMELRTH | 1.35

Next, consider the following sequence.
Item `DEEEKLRQWIFHLWIKILETGDEKLLEELADPHVLHRFDGVHAHGRERMSSWLRELIERLGVKVHELNSIHIYGDKARINFQVHVDGQRKEMTIHMLMVDGKIKSTQLDRREH` has what recorded protease stability score?
1.09

---

# procedure.text: protease stability score; higher = more stable; yeast display proteolysis, trypsin and chymotrypsin
condition met means recorded protease stability score is 1 or above; condition not met means it is below 1.

Below, 4 sequences whose answers are already recorded.
* DEDEKILEKYIRIETRALKTGNEEERENLADPNTKIDVNGVKIHGMEDWSRKLLKWLRDHGATNDLKFERIKFQGEKVILDGRLHVHYNGVDLEIETIIYFTKYNGKWILKSMEVI | condition not met
* DEETRDIIHILKLLWDAIRTGDEEAIRRLLDPDMRIQVGDKEIHGREEFLKEISHWRYDLESFHIKHVDVINGVAIIHLHIVGRFHYDGRTYHDSYEEDVFIFKVNGRWHFHQIKYR | condition met
* DEDDELYKRVFELIEHDNHTGNEKSHLELADPHARLLYDGKLVIGRELLLEWMRRLGIDVIRHMDFKRFRIQGDKIEMDVRVHGEVNGRHIDTDTHLIARKVNGRWLLEEIRIK | condition not met
* SEEDEQSKKILHIFIEILKTGDFETLEHMLDPNAKLDIDGRDLHGRELFLSMWEEFVRQYKNLRIIFRDYRLYGDYVIIHGQLRINGKTHDLRFHIVNINGRLKHLKIEHE | condition met

Record `NEEQNHAERMMRENLHNIMTGDEHKLHKLADPDARIEIGDKEIIGRELFSRILLELRFEITRVHIREITLIGDKVHVRTEEDVVIKVNGVEKRRHINSEWIFFKFNGQWLLKEVRFE` ; criterion: protease stability score no lower than 1. Met?
condition met

---

# procedure.text: protease stability score; higher = more stable; yeast display proteolysis, trypsin and chymotrypsin;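 note: relative to predicted unfolded state with 0 unfolded-like and 1 meaning tenfold more protease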
criterion met means recorded protease stability score is 1 or above; criterion not met means it is below 1.

* HEDDEMKKKWFEEWERRIHTGDEEEINKLADPHVRLEIGDKTRHGREEFTRYLWEFLYEFGANHVEIRYEEIRIINGVVHIRSRIHIHVDGRHIHLETHLIVFKFDGQWRLHTLHYK | criterion not met

Record `SDEEERTRTAIEQLIELRLTGDEEMLHKLVDPHYRLHFIVDGRDLDFIGWRDFQRIFHEETKKFKNMRIEWRHVDIVNGVVTVHIELKIGDKRDEIDLFFFKINGRWILKSVEVHRR` ; criterion: protease stability score no lower than 1. Met?
criterion met

Record `DEIEHEVERVVREWMRAYITGDEDTLQHLLDPHVLSVIDGVNIHGMENVTEYLRRHLEKIKNVQIEDMRIHRLDIQGNKLDLDTRLHITFNGVPEVLETRLILTKIDGKWWMHQVIIN` ; criterion: protease stability score no lower than 1. Met?
criterion met

Record `DEDEEIRTRSLRLLIQLLITGDEEIFKQLFDPHALVIINGRRHHGWTLLEEYWRRLGADVIKSVELENTDDVNGVLILDMRLHMHINGRDDSQRIHIIATKINGKWRNESIVLS` ; criterion: protease stability score no lower than 1. Met?
criterion met

Record `TESEKMALIAIEIIFHDLLTGNEESLIKLADPDVQLHYGDKTFHGREEFHKLYSEIIKRYDHIEVLIRDIRVQGDKMHVKEELNLVINGKTVHLESNRTSLKYNGRWHLKSVHLH` ; criterion: protease stability score no lower than 1. Met?
criterion met

---

# procedure.text: protease stability score; higher = more stable; yeast display proteolysis, trypsin and chymotrypsin;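 note: relative to predicted unfolded state with 0 unfolded-like and 1 meaning tenfold more protease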
sequences and their reported protease stability score
Please give only the number in your answer, with no unit.

Below, 4 sequences whose answers are already recorded.
- DETTKLTEELLRLIWEVLITGDEHLFERLADPHVRVDEIYGDKRIELHGRERVSTRLHELRIKRVELKEIEVFNGRSHANTHVNGHIDGVTFRSDTRWEFVMIDGKLEEVRRKIE: 0.597
- DEEEETEKKWADIFTKAWITGDEETLERLMDPNVKYHQEVGDKHWSAHGREEVSRHIHELLKHLGVKVVELRRIHVINGVVHVDGKTIVNGREFTVHIHYRIVDGRVREIRFEFR: 2.22
- SELDEEAEEALRITFEMLITGDWEFLNHYVDPDAKLNIGDKEHHGRETVITFVKEISRKLGIKVIRFRHIEVQVFNGKVDIHIHGVVEWNGRREEFRIIIILHKIDGQWHIREMRVHIR: 2.4
- DEEKKFIHYLAHLLIELILTGDEDTFEKLADPDVRLSIFAENHELHWHGREEVLRELIHWTRRVDHIHMKLDHSRIINGKSHMDGNLVDIQGDKKIEKKVTVILVVVNGKVKRIEIWIG: 1.47

Next, consider the following sequence.
Item `SEEDEETEHITRLIFRAMVTGDWKELLDNLDPHTRVDINGRDQHGWEVMREWVERIKNVQLRIRRISVQGDKTRLDTEFRQGDKSVHVEVRITIVDGVVQHIEFKDR` has what recorded protease stability score?
1.6

---

# procedure.text: protease stability score; higher = more stable; yeast display proteolysis, trypsin and chymotrypsin;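 note: relative to predicted unfolded state with 0 unfolded-like and 1 meaning tenfold more protease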
assay.readout: protease stability score
Please give only the number in your answer, with no unit.

Below, 5 sequences whose answers are already recorded.
* DEEEEFATRIMKILLKALLTGDETTLKHLIDPHTRFIFVIGEKIVHVHGRDEIAKFWETLRREIRIEDITIDRIRVQGEKVETDGYIHIWIGDKLVDVESHDEWVIVNGRIKHIRMEIK | 1.93
* DEDEEQLKEMWREFLEASRTGDEHRIKELADPNARLRQGDKRFHGREEFSRLIVEMRIRHIEIRRIRVVGDKIEITTELHVIYNGQHIEVDTHVIILKVNGRWSLTEMEER | 0.905
* DEDEEEMEKMSREISEMLLTGDFDRLLELLDPNYRLRIGDKDLHGREEAKKHMHELFRHLGVDKFEVRLKQVELVDGVIWVHIEQRYDGRDFQIHVINKKIDGRWHVRRVEFE | 1.72
* SEDERDIEHAVKVEIKSYETGDEKSWREYVDPHVRIEQGDFLFHGWEDAVKLYAKIKNLTLEVKDMKVYNGRVHSEGVFKFNGQSMETRLIIFKIDGQWIVHSIHIK | 1.82
* DTEDKLSEEALKDLLEKVKTGDPQVMEELADPEVKVDIGDKNLHGREEYTRWVEKLWKRVPNLKLEIDHVEFQGDYVLIEGRIIYNGRKHKIKIHSLKIDGRWLIETVRIR | 1.39

Next, consider the following sequence.
Item `TEERKEMEEAWDRFVHNIHTGDEHSLLKLVDPHVRVQIGDKEVHGWRYLLQLLRDIITKVKNLTVDLRIEDERMIGNYIELEVILVINFENRYHFIRYHVRHEKVDGKWHLKEISRD` has what recorded protease stability score?
1.08

---

sequences and their reported protease stability score
# procedure.text: protease stability score; higher = more stable; yeast display proteolysis, trypsin and chymotrypsin;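 note: relative to predicted unfolded state with 0 unfolded-like and 1 meaning tenfold more protease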
Please give only the number in your answer, with no unit.

Item `DERKEYVEILVRILIELFLTGDWEHMLRLADPNMRFRIGDKETHGMEEAYKLMEELKEEIRIHEVRLTHIRVYGDFADTETRVHVEVGDKIVDYDMRLHLVVVNGQLRHITIEIE` has what recorded protease stability score?
0.731

Item `DDEEEILKEFVRIFREVWLTGDFHALLRLADPNVRQELHVNGREIHNHGREAMSDWHHFMRKFFKGMTIIEHTSYLIDGRIHIEGTWSFDGVDFRTHIHQVVIDGRIEHVQLTIH` has what recorded protease stability score?
0.177

Item `DEEEEDIDFLIHLLVKTIKTGDEHIFRRLMDPHVRMHAEGRELHGREVVVERWAKIMRELRITHIEVTHKDVVDGQVELHMRIKFRVGDKEKETRVELHAEKIDGRWVIRSIHIL` has what recorded protease stability score?
1.75

Item `DEVEERMKRIVKHFVSAVLTGNFRHMEQLFDPNYKHRIEIGDKIVNLHGWEAVVKWIEEEWRRFDHVEIRIRDMDVIGNKSEVHGDLHLKAENHTLEIHVIEHFFIVNGKLHHIEKTHH` has what recorded protease stability score?
-0.007

Item `SELHEDAEEIAKQFSRAWTTGDFEELDKLFDPNARIEYGDYEVHGRHIVSKFLRQIRIKEVRFIVRRVEHYDGRIRLWGELTLHGNINGRDFDLHTKSDLLVIKIDGRWVVEQYIIR` has what recorded protease stability score?
1.47
